Below, each entry is listed alongside its reported yeast fitness.
B1: tRNA (parent)
chain: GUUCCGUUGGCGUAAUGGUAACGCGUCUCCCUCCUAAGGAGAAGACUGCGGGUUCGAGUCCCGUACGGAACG

variants of: B1; assay: yeast fitness relative to wild type (ratio to wild type); higher = fitter; tRNA-Arg(CCU), competitive growth, 37 C, YPD
Variants at the floor of the assay were thinned out.

GUUCCGUUGGCGUGAUGGUAACACGUCUCCCUCCUAAGGAGAAGACCGCGGGUUCGAGUCCCGUACGGAACG [A14G G23A U47C]    ≤ 0.5
GUUCAGUUGGCGUUAUGGUAACGCGUUUCCCUCCUAAGGAGAAGACUGGGGGUUCGAGUCCCGUACGGAACG [C5A A14U C27U C49G]    ≤ 0.5
GUACCGUUGGGGUAAUGGUAACGCGUCUCCCUCCUAAGGACAAGACUGCGGGUUCGACUCCCGUACGGAACG [U3A C11G G41C G58C]    0.733
GUUCCGUUGGCGUAAUGGUAGCGCGUCUACCUCCUAAGGAGAAGACUGCGGGUUCGAGUCCCGUACGGCACG [A21G C29A A69C]    ≤ 0.5
GUUCCGUUGGCGUAAUGGUAACGCGUCUCCCUCCUAAGGAGAAGACUGCGGGUUCAAGUCCCGUACGAAACG [G56A G68A]    1.04
GAUCCGUUGGGGUAAUGGUAACGCGUCUCCUUCCUGAGGAGAAGACUGCGGGUUCGAGUCCCGUACGGAACG [U2A C11G C31U A36G]    0.646
GUUCCGUUGACGUAAUGGUAACGCGUCUCGCUCCUAAGGAGAAGACUGCGGGUUCGAGUGCCAUUUGGAACG [G10A C30G C60G G63A A65U C66U]    ≤ 0.5
GUUACGUUGGCGUAAUCGUAACCCGUCUCCCUCCUAAGGAGAAGACUGCGGGUUCGCGUCCCGUACGGAACG [C4A G17C G23C A57C]    ≤ 0.5
GUUCCGUUGGCGUAAUGGUAACGAGUCUUCCUCCUAAGGAGAAGACUGCGGGUUCGAGUCCCGUACUGAACG [C24A C29U G67U]    0.591
GUUCCGGUGGCGUAAUGAUAACGCGUCUCCCUCCUAAGGAGAAGACUACGGGUUCGAGUCCCGUACGGAACG [U7G G18A G48A]    ≤ 0.5

Request the reported yeast fitness associated with GUUCCGUUGGCGUAAUGGUCACGCGUCUCUCUCCUAAGGAGAAGACUGCGCGUUGGUGUCCCGUAUGGAACG [A20C C30U G51C C55G A57U C66U]
≤ 0.5

Which yeast fitness value is on record for GUUCCGUUGGCGUAAUGGUAUCGCGACUCCCUCCUACGGAGAAGACUGCGGGUUCGAGUCCGGUACGGAACG [A21U U26A A37C C62G] ?
≤ 0.5

Fill in: yeast fitness of GUUCCGUUGGCGUAAUGGUAACGCGUUUCCCUCCUAAGCAGAAGACUGCGGAUUCAAGUCCCGUACGGAACG [C27U G39C G52A G56A] is ___
0.559

Consider the variant GUUCCGUUGGCGUAAUGGUAACGCGUCUCCCUCCUUAGGAGAAGAAUGCGGGUUCGAGUCCCGUACGGAACG [A36U C46A] and give its measured yeast fitness.
0.763

May I ask what yeast fitness has been recorded for GUUCCGUUGGCGUAAUGGUAAUGCGUCACCCUCCUAUGGAGAAGACUGCGCGUUCGAGUCCCGUAUGGAACG [C22U U28A A37U G51C C66U] ?
0.606

Recorded yeast fitness of GUUCCGUUGGCGUAAUGGUAACGCGUGUCCCUCCUCAGGAGAAGACUCCGGGUUCGAGUCCCGUACGGAACG [C27G A36C G48C] , please.
≤ 0.5

Dear colleague, I am looking for the recorded yeast fitness of the following variant: GUUCCAUUGGCGUAAUGGUAAAGCGUCUCCCUCCAAAGGAGAAGACUGCGGGUUCGAGUCCCGUACGGAACG [G6A C22A U35A]
≤ 0.5

Requested field: yeast fitness. Item: GUUCCGUUGGCGUAAUGGUAAGGUGUCUUCCUCCUAAGGAGUAGACUGCGGGUUCGAGUCCCGUACGGAACG [C22G C24U C29U A42U]
≤ 0.5

Endpoint output: yeast fitness of GUUCCGUUGGCGUAAUGGUAACGCGACUCCCUCCUAAGAACAAGACUGCGGGUUCGAGUCCCGUACGGAACG [U26A G39A G41C] . Value?
≤ 0.5

State the recorded yeast fitness for this entry: GUUCCGUUGGCGUAAUGGUAACACGUCUCCCUCCUAAGGAGGAGUCUGCGGGUUCGAGUCCCCCGCGGAACG [G23A A42G A45U G63C U64C A65G]
≤ 0.5

What yeast fitness value was documented for this variant, GUUCGGUUGGAGUAGUGAUAACGCGUCUCGCUCCUAAGGAGAAGACUGCGGGUUCGAGUCCCGUACGGAACG [C5G C11A A15G G18A C30G] ?
0.587

Can you look up the measured yeast fitness of GUUCCGAUGGCGUAAUGGUAACGCGUCUCCCUCCUAAGGAGAAGACUGCGGGAUCGAGUCCCGUACGGCACG [U7A U53A A69C] for me?
0.545

Query: yeast fitness; subject: GUUCCCUUGGCGUAAUGGUAACGUGUCUCCCUCCUAAGGAGAAGACUGCGGAUUCGAGUCCCGUACGGAACG [G6C C24U G52A]
≤ 0.5
